- target-system: A1AR (Homo sapiens, UniProt P30542)
- Sequence (P30542 whole entry): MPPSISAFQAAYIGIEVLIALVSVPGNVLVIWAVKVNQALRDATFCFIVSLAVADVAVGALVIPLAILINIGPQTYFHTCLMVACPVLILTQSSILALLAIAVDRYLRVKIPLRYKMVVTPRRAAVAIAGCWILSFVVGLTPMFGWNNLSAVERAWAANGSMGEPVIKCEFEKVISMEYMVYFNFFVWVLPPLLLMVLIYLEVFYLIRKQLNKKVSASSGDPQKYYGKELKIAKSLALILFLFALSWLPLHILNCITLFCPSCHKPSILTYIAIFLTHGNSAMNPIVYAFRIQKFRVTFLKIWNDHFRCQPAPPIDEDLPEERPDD
- protocol-description: Binding affinity of A2AAR ligands, radioligand displacement at A1AR
- measurement-parameters: number in parentheses
Kindly state selectivity ratio vs. the A2AAR, A1AR for each of the entries shown.
Answer with a bare number; do not write a unit.

IN: # lookup: selectivity ratio vs. the A2AAR, A1AR of "C#CCn1cnc2c(N)nc(C#C[C@]3(O)CCC[C@@H](C)C3)nc21"
OUT: 5

IN: Proceed to "CCC(CC)Nc1nc(C#C[C@]2(O)CCC[C@@H](C)C2)nc2c1ncn2C"
OUT: 1.3

IN: Proceed to "C#CCn1cnc2c(NC(CC)CC)nc(C#C[C@]3(O)CCC[C@@H](C)C3)nc21"
OUT: 2

IN: Proceed to C#CCn1cnc2c(N)nc(C#CC3(O)C4CC5CC(C4)CC3C5)nc21 (stereo not shown)
OUT: 16
